- ASSAY_PROCEDURE: in vivo
- MEASUREMENT_SETUP: mouse, brain, iv, 5 mg/kg
MEASURE: tissue uptake at 5 min (%ID/g)
Answers are plain numbers, in %ID/g.

*Q* Return tissue uptake at 5 min (reported value) for this molecule: [11CH3]NC(=O)c1cc(Oc2ccc3nc(N[C@@H]4CCCC[C@H]4O)sc3c2)ccn1
*A* 2

* * *

- ASSAY_PROCEDURE: in vivo
- MEASUREMENT_SETUP: mouse, brain
MEASURE: tissue uptake at 1 h (%ID/g)
Numbers only, in %ID/g.

*Q* Return tissue uptake at 1 h (reported value) for this molecule: [11CH3]NC(=O)c1cc(Oc2ccc3nc(N[C@@H]4CCCC[C@H]4O)sc3c2)ccn1
*A* 1.18

* * *

- ASSAY_PROCEDURE: in vivo
- MEASUREMENT_SETUP: mouse, brain, iv, 5 mg/kg
MEASURE: tissue uptake at 1 h (%ID/g)
Answers are plain numbers, in %ID/g.

*Q* Return tissue uptake at 1 h (reported value) for this compound: [11CH3]NC(=O)c1cc(Oc2ccc3nc(N[C@@H]4CCCC[C@H]4O)sc3c2)ccn1
*A* 1.3

* * *

- ASSAY_PROCEDURE: physchem
- MEASUREMENT_SETUP: octanol/water
MEASURE: logD

*Q* Return logD (reported value) for this molecule: [11CH3]NC(=O)c1cc(Oc2ccc3nc(N[C@@H]4CCCC[C@H]4O)sc3c2)ccn1
*A* 2.26

* * *

- ASSAY_PROCEDURE: physchem
- MEASUREMENT_SETUP: buffer, pH 7.4
I'd appreciate it if you could supply logD values for the items below.

CNC(=O)c1cc(Oc2ccc3nc(N(C)[C@@H]4CCCC[C@H]4O)sc3c2)ccn1 ... 3.67

Field: next compound
*Q* Return logD (reported value) for this compound: CNC(=O)c1cc(Oc2ccc3nc(N([11CH3])[C@@H]4CCCC[C@H]4O)sc3c2)ccn1
*A* 3.38

* * *

- ASSAY_PROCEDURE: in vivo
- MEASUREMENT_SETUP: mouse, brain, iv, 5 mg/kg
MEASURE: tissue uptake at 0.25 h (%ID/g)
One number for each entry, in %ID/g.

*Q* Return tissue uptake at 0.25 h (reported value) for this compound: [11CH3]NC(=O)c1cc(Oc2ccc3nc(N[C@@H]4CCCC[C@H]4O)sc3c2)ccn1
*A* 1.35

* * *

- STUDY_TARGET: Macrophage colony-stimulating factor 1 receptor (Homo sapiens)
- Sequence (P07333 whole entry): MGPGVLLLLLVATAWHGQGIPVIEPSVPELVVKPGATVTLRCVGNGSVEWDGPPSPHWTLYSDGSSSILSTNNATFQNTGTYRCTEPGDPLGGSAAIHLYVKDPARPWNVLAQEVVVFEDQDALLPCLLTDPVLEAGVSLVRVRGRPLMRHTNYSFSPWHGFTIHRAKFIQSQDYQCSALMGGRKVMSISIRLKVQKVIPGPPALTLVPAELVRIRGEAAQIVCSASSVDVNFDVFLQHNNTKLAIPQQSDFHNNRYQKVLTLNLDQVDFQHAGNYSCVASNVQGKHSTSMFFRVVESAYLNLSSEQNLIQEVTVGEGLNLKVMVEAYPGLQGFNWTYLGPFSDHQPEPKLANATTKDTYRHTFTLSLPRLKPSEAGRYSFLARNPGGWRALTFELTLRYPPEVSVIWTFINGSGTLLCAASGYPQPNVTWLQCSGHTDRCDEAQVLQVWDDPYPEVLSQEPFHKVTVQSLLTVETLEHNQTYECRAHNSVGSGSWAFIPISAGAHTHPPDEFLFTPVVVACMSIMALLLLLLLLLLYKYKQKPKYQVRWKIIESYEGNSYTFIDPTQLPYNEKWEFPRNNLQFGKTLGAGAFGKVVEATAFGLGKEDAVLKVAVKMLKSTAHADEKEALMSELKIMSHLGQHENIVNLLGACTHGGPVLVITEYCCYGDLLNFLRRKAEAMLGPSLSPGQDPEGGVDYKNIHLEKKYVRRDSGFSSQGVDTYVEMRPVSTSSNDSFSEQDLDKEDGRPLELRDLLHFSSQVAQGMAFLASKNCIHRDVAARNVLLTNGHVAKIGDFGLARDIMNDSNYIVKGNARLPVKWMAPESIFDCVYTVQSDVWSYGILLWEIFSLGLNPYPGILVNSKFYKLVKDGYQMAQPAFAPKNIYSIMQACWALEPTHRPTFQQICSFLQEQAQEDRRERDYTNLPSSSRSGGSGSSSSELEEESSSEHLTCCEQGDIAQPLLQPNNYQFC
MEASURE: pKi
Answers are plain numbers, as −log10 of the molar value.

*Q* Return pKi (reported value) for this compound: CCOc1cc2ncc(C(N)=O)c(Nc3ccc(F)cc3F)c2cc1N1CCN(C)CC1
*A* 8.10
